This collection of values is drawn from ChEMBL document CHEMBL1687877.

molecular target: UniProt P19022; experiment: Antagonist activity at N-cadherin
Sequence (P19022 whole entry): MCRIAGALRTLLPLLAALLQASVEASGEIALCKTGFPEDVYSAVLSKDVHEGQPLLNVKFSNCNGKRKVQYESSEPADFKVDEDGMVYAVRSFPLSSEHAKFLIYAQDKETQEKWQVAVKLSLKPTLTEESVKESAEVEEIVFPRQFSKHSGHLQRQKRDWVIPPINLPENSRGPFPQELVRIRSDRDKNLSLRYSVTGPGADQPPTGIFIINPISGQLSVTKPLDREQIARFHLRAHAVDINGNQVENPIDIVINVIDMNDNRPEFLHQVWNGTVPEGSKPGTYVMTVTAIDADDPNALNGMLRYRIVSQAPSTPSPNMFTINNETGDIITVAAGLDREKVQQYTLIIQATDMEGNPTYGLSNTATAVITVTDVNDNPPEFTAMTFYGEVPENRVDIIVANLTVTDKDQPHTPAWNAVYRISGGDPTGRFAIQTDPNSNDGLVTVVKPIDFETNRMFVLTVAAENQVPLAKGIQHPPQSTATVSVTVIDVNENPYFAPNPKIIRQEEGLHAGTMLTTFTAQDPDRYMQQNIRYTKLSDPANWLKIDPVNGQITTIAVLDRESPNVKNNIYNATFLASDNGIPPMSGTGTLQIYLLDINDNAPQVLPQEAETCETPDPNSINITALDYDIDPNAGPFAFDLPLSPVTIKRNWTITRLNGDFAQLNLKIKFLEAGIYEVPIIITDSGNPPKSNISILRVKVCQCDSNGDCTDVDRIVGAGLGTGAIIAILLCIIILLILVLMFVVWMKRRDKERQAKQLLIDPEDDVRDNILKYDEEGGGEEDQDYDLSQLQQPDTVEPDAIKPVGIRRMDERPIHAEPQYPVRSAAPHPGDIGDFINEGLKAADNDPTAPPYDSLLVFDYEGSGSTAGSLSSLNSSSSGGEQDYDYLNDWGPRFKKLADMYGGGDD
Where a SMILES comes first, the peptide text is derived from it. Bridges are numbered along the chain shown (N, C = ends).
reported-property: IC50 (µM)
Numbers only, in µM.

Input CC(=O)N[C@H]1CSSC[C@@H](C(N)=O)NC(=O)[C@H](CC(=O)O)NC(=O)[C@H](C(C)C)NC(=O)[C@H](C)NC(=O)[C@H](Cc2cnc[nH]2)NC1=O (Ac-CHAVDC-NH2; disulfide 1-6) . Output IC50: 5

###

assay: Inhibition of bacterial DNA polymerase beta association with DNA polymerase delta
reported-property: pIC50
Give bare numbers, as −log10 of the molar value.

compound | pIC50
CCC/C(=N\OCc1ccc(-c2ccccc2)cc1)C1C(=O)CC(C)(C2OCC(C)(C)CO2)OC1=O (configuration not stated) | 4.05

Input CCC/C(=N\OC/C(Cl)=C/c1ccc(Cl)cc1)C1C(=O)CC(C)(C)CC1=O . Output pIC50: 3.54
